All figures here come from patent US20150056222A1.

Target: T1, hPRLR.mFc (soluble dimeric human PRLR) (human)
T1 construct: dimeric construct
T1 chain: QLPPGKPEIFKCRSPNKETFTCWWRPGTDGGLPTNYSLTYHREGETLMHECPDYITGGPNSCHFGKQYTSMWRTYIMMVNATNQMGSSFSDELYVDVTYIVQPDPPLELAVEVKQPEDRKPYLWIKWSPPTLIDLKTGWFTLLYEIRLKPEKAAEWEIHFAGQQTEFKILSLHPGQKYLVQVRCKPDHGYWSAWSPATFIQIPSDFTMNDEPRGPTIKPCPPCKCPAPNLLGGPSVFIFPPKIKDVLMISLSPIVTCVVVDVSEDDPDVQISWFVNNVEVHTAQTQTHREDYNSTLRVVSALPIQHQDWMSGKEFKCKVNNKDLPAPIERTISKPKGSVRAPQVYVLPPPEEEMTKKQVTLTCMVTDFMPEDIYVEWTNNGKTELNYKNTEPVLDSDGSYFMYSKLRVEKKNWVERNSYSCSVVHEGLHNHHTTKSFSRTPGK
Test: SPR, 37C, mAb capture
test_readout: T½ (h)

1) H1H6774P (antibody, human IgG1, V domains shown, human IgG1 Fc (H1H)) VH: EVQLVESGGGLAQPGGSLRLSCVASGFTFSTYWMSWVRQAPGKGLDWVGNIKQDGSEQNYVDSVRGRFTISRDNAKNSLFLQMNSLRAEDTGVYYCATLLTKGDYWGQGTLVTVSS VL: DIQMTQSPSSLSASVGDSVTITCRASQDISNYLDWFQQKPGKAPKSLIYAASILQGGVPSRFSGSGYGTDFTLTISSLQPEDFATYYCRQYKTYPFTFGPGTKVDIK	1
2) H1H6800P (antibody, human IgG1, V domains shown, human IgG1 Fc (H1H)) VH: EVQLVESGGGLVQPGRSLRLSCAASGFTFDGYAMHWVRQGPGKGLEWVSGISWYSDTLGYADSVKGRFTISRDNAKNSLYLQMNSLRTEDTAFYYCAKISSSGWAFDYWGQGTLVTVSS VL: EIVLTQSPGTLSLSPGERATLSCRASHSVSSAYLAWYQQKPGQTPRLLIYGTSSRATGIPDRFSGSGSGTDFTLTISRLEPEDFAVYYCQQYGSSPLFTFGPGTKVDIK	1.32
3) H1H6795P (antibody, human IgG1, V domains shown, human IgG1 Fc (H1H)) VH: QVQLVQSGAEVKKPGASVKVSCKASGYTFGTSGITWVRQAPGQGLEWMGWSSAYNGKTDYAQKFQDRVTMTTDTSTTTGYMEMRSLTSDDTAVYYCTTVVRRPFDFWGQGTLVTVSS VL: DIQMTQSPSSLSASVGDRVTITCRASQDINNFLAWFQQKPGKAPKSLIYAASSLQSGVPSKFSGGGSGTDFALTISSLQPEDFATYYCQQYSSYPITFGQGTRLEIK	2.48
4) H1H6975N (antibody, human IgG1, V domains shown, also called H2M6975N) VH: EVHLVESGGGLVQPGGSLRLSCAASGFTFSSYEMNWVRQTPGKGLEWISHISSRSVIIYYADSVKGRFTISRDNAKNSLFLQMNSLRAEDTAVYFCAGITIFGIPEYWGQGTLVTVSS VL: EIVLTQSPATLSLSPGERATLSCRASQSVSSYFAWYQQKPGQAPRLLIYDASSRATGIPTRFSGSGSGTDFTLTISSLEPEDFAVYYCQQRSSWPITFGQGTRLEIK	2.72
5) H1H6792P (antibody, human IgG1, V domains shown, human IgG1 Fc (H1H)) VH: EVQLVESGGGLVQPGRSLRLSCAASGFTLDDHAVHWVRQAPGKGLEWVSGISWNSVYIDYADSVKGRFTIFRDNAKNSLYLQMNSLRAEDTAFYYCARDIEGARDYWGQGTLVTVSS VL: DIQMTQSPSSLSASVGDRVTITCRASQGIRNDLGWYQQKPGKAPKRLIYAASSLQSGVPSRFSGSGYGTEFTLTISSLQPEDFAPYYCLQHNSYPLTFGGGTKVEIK	1.1
6) H1H6781P (antibody, human IgG1, V domains shown, human IgG1 Fc (H1H)) VH: EVQLVESGGDLVQPGESLRLSCTASGFTFNSYEMNWVRQAPGKGLEWVSYISSSGGTKYYVDSVKGRFTISRDNAKKSLYLQMNSLRADDTALYYCARLNGVDVFDIWGQGTMVTVSS VL: DIQMTQSPSSLSASVGDRVTITCRASQDIFNYLAWFQQKPGKVPELLISAASTLQSGVPSRFSGSGSGTYFTLTISSLQPEDIATYYCQRYNSAPLTFGGGTKVEIK	1.95
7) H1H6960N (antibody, human IgG1, V domains shown, also called H2M6960N) VH: EVQLVESGGGLVKPGGSLRLSCAASGITFSSYSMNWVRQAPGKGLEWVSSISTRSSLIHYADSVKGRFTISRDNAKNSLYLQMNSLRDEDTAVYYCARWDAAAAFDYWGQGTLVIVSS VL: DIQLTQSPSFLSASVGDRVTITCWASQGISSYLAWYQQKPGKAPKLLIYVASTLQSGVPSRFSGSGSGTEFTLTISSLQPEDFATYFCQQLNSYPLTFGGGTKVEIK	1.31
8) H1H6765P (antibody, human IgG1, V domains shown, human IgG1 Fc (H1H)) VH: EVQLVESGGGVVRPGGSLRLSCVGSGFSFDDHGMNWVRQGPGKGLEWVSGFNWNGGSTNYAESVKGRFTISRDNARNSLFLQMNSLRAEDTALYYCVRGRSGWFNDAFDVWGPGTMVTVSS VL: EIVLTQSPGTLSLSPGERATLSCRASQTINSNYLAWYRQKPGQTPRLLIYGTSSRATGIPDRFSGSGSGTDFSLTISRLEPEDFAVFYCQQYAGLPTFGPGTKVDIK	1.87
